Molecular target: α-glucosidase (Saccharomyces cerevisiae, UniProt P38158)
Sequence (P38158 whole entry): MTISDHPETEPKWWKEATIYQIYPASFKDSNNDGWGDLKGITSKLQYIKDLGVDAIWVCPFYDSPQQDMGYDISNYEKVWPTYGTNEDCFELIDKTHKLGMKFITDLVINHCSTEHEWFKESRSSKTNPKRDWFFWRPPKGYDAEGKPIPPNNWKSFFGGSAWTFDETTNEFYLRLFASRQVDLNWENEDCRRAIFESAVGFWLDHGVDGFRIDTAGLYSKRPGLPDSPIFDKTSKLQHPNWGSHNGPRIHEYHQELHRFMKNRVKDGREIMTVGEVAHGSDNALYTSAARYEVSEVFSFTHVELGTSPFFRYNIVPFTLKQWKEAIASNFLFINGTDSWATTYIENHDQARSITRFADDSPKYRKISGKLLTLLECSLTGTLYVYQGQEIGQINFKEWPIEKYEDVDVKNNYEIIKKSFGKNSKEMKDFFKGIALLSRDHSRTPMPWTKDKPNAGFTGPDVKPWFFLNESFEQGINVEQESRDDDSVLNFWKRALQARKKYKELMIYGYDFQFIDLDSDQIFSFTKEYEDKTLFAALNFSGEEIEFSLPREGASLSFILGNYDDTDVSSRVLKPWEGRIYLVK
pKi: −log10 of the molar value.
property: pKi

{"chemical_string": "O=C(CSc1nc2ccccc2cc1-c1nc2ccccc2s1)Nc1ccc(F)cc1", "reported_measurement": 4.42}

---

Molecular target: Saccharomyces cerevisiae α-glucosidase enzyme (EC. 3. 2. 1. 20) (Saccharomyces cerevisiae, UniProt P38158)
Sequence (P38158 whole entry): as above
Test: In vitro α-glucosidase inhibitory activity
Assay type: biochemical
property: log10(IC50) (log10 of the value in µM)

{"compound": "O=C(CSc1nc2ccccc2cc1-c1nc2ccccc2s1)Nc1ccccc1 [Compound 8a]", "property": "log10(IC50)", "reported_measurement": 2.48}
{"compound": "O=C(CSc1nc2ccccc2cc1-c1nc2ccccc2s1)NCc1ccc(F)cc1 [Compound 8s]", "property": "log10(IC50)", "reported_measurement": 2.11}
{"compound": "O=C(CSc1nc2ccccc2cc1-c1nc2ccccc2s1)Nc1ccccc1Cl [Compound 8i]", "property": "log10(IC50)", "reported_measurement": 2.07}
{"compound": "O=C(CSc1nc2ccccc2cc1-c1nc2ccccc2s1)NCCc1ccccc1 [Compound 8t]", "property": "log10(IC50)", "reported_measurement": 2.35}
{"compound": "O=C(CSc1nc2ccccc2cc1-c1nc2ccccc2s1)Nc1ccc(Cl)cc1 [Compound 8k]", "property": "log10(IC50)", "reported_measurement": 2.16}
{"compound": "CCc1ccc(NC(=O)CSc2nc3ccccc3cc2-c2nc3ccccc3s2)cc1 [Compound 8d]", "property": "log10(IC50)", "reported_measurement": 2.29}
{"compound": "O=C(CSc1nc2ccccc2cc1-c1nc2ccccc2s1)Nc1ncc([N+](=O)[O-])s1 [Compound 8o]", "property": "log10(IC50)", "reported_measurement": 1.67}
{"compound": "Cc1ccc(NC(=O)CSc2nc3ccccc3cc2-c2nc3ccccc3s2)cc1 [Compound 8c]", "property": "log10(IC50)", "reported_measurement": 2.58}
{"compound": "O=C(CSc1nc2ccccc2cc1-c1nc2ccccc2s1)Nc1ccc(F)cc1 [Compound 8h]", "property": "log10(IC50)", "reported_measurement": 1.58}

---

List of melting point values.
property: melting point

{"compound": "O=C(CSc1nc2ccccc2cc1-c1nc2ccccc2s1)Nc1cccc2ccccc12 [Compound 8p]", "reported_measurement": "198 to 200 °C"}
{"compound": "O=C(CSc1nc2ccccc2cc1-c1nc2ccccc2s1)Nc1ncc([N+](=O)[O-])s1 [Compound 8o]", "reported_measurement": "199 to 201 °C"}
{"compound": "O=C(CSc1nc2ccccc2cc1-c1nc2ccccc2s1)NCCc1ccccc1 [Compound 8t]", "reported_measurement": "225 to 227 °C"}
{"compound": "Cc1ccc(CNC(=O)CSc2nc3ccccc3cc2-c2nc3ccccc3s2)cc1 [Compound 8r]", "reported_measurement": "182 to 184 °C"}
{"compound": "O=C(CSc1nc2ccccc2cc1-c1nc2ccccc2s1)NCc1ccc(F)cc1 [Compound 8s]", "reported_measurement": "213 to 215 °C"}
{"compound": "O=C(CSc1nc2ccccc2cc1-c1nc2ccccc2s1)Nc1ccccc1F [Compound 8g]", "reported_measurement": "201 to 203 °C"}
{"compound": "Cc1ccccc1NC(=O)CSc1nc2ccccc2cc1-c1nc2ccccc2s1 [Compound 8b]", "reported_measurement": "211 to 213 °C"}
{"compound": "O=C(CSc1nc2ccccc2cc1-c1nc2ccccc2s1)Nc1ccccc1Cl [Compound 8i]", "reported_measurement": "221 to 223 °C"}
{"compound": "O=C(CSc1nc2ccccc2cc1-c1nc2ccccc2s1)Nc1ccc([N+](=O)[O-])cc1 [Compound 8m]", "reported_measurement": "209 to 211 °C"}
